# TESTED TARGET: T1, N-terminal ECD protein of mouse FGFR3 with a terminal avidin tag (mouse, UniProt Q61851 21-369)
# T1 construct: extracellular domain; not shown: terminal avidin tag
# T1 sequence (looked up): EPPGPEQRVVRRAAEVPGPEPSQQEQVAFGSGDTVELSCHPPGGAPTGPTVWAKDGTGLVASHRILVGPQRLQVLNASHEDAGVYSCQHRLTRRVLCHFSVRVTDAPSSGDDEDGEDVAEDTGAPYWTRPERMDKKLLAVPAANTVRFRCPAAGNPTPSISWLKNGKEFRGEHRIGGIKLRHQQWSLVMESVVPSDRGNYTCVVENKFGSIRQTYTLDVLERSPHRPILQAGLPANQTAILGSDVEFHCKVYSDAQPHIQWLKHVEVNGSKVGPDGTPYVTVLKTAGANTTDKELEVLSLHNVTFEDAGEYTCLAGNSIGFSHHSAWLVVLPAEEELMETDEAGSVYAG
# ASSAY NOTES: SPR (Biacore), FGFR3 ECD immobilised on chip, antibody injected, 1:1 fit
Exercise: state measured kon for each of the binders provided.
Give bare numbers, in M⁻¹ s⁻¹.

// worked examples, kon included
- BINDER: "KE35 (antibody, V domains shown, Mouse monoclonal antibody from a hybridoma; also called anti-FGFR3 antibody KE35) VH: EVQLQQSGPELVKPGASVKMSCKASGYTFTDYNMHWVKQSHGKSLEWIGYINPNNGGTRYNQKFKGKATLTVNKSSSTAYMELRSLTSEDSAVYYCARERDYDGAMDYWGQGTSVTVSS VL: DIQMTQSPSSLSASLGGKVTITCKASQDINKFIAWYQHKPGKGPRLLIHYTSTLQPGIPSRFSGSGSGRDYSFSISNLEPEDIATYYCLQYDNLLWTFGGGTKLEIK"
  kon / M⁻¹ s⁻¹: 571000
- BINDER: "KE42 (antibody, V domains shown, Mouse monoclonal antibody from a hybridoma; also called anti-FGFR3 antibody KE42) VH: EVQLQQSGPELVKPGASVKMSCKASGYTFTDYNMHWVKQSHGKSLQWIGYINPNNGGTNYNQNFKDKATLTVNKSSTTAYMELRSLTSEDSAVYYCARERDYDGSMDFWGQGTSVTVSS VL: DIQMTQSPSSLSASLGGKVTITCKASQDINKFIAWYQHKPGKGPRLLIHYTSTLQPGIPSRFSGSGSGRDYSFSISNLEPEDIATYFCLQYDNLLWTFGGGTKLEIK"
  kon / M⁻¹ s⁻¹: 739000

Then there is this binder:
Given KE94 (antibody, V domains shown, Mouse monoclonal antibody from a hybridoma; also called anti-FGFR3 antibody KE94) VH: QVQLQQSGAELVRPGASVTLSCKASGSTFTDFEIHWVKQTPVHGLEWIGAIDPETGGTAYNQKFKGKAILTAVKSSSTAYMGLRSLTSEDSAVYYCTRNYDGYSRTMDYWGQGTSVTVSS VL: NIMMTQSPSSLAVSAGEKVTMSCKSSQSVLYSSNQKNYLAWYQQKPGQSPKLLIYWASTRESGVPDRFTGSGSGTDFSLSISSVQTEDLAVYYCHQYLSSYTFGGGTRLEMK , state its recorded kon.
705000
